- test.settings: in methanol, 324.15 K
readout.label: solubility (mole fraction)

In [3]: df
Out[3]:
         record_smiles               readout_label  result
0  CCOC(=O)c1ccc(N)cc1  solubility (mole fraction)   0.296

----------
- test.settings: in n-butanol, 321.15 K
readout.label: solubility (mole fraction)

>>> print(df.to_string())
         record_smiles  result
0  CCOC(=O)c1ccc(N)cc1   0.241

----------
- test.settings: in n-butanol, 291.15 K
readout.label: solubility (mole fraction)

In [3]: df
Out[3]:
         record_smiles               readout_label  quantitative_readout
0  CCOC(=O)c1ccc(N)cc1  solubility (mole fraction)                0.0562

----------
- test.settings: in isopentanol, 324.15 K
readout.label: solubility (mole fraction)

>>> print(df.to_string())
         record_smiles               readout_label  quantitative_readout
0  CCOC(=O)c1ccc(N)cc1  solubility (mole fraction)                 0.252

----------
- test.settings: in ethanol, 327.15 K
readout.label: solubility (mole fraction)

>>> df
         record_smiles               readout_label  quantitative_readout
0  CCOC(=O)c1ccc(N)cc1  solubility (mole fraction)                 0.328

----------
- test.settings: in methanol, 307.15 K
readout.label: solubility (mole fraction)

>>> print(df.to_string())
         record_smiles               readout_label  quantitative_readout
0  CCOC(=O)c1ccc(N)cc1  solubility (mole fraction)                 0.141

----------
- test.settings: in n-propanol, 283.15 K
readout.label: solubility (mole fraction)

>>> print(df.to_string())
         record_smiles  result
0  CCOC(=O)c1ccc(N)cc1  0.0441

----------
- test.settings: in isobutanol, 283.15 K
readout.label: solubility (mole fraction)

In [3]: df
Out[3]:
         record_smiles  quantitative_readout
0  CCOC(=O)c1ccc(N)cc1                0.0281

----------
- test.settings: in methanol, 283.15 K
readout.label: solubility (mole fraction)

In [3]: df
Out[3]:
         record_smiles  quantitative_readout
0  CCOC(=O)c1ccc(N)cc1                0.0528

----------
- test.settings: in isobutanol, 291.15 K
readout.label: solubility (mole fraction)

         record_smiles               readout_label  quantitative_readout
0  CCOC(=O)c1ccc(N)cc1  solubility (mole fraction)                0.0392

----------
- test.settings: in methanol, 295.15 K
readout.label: solubility (mole fraction)

>>> df
         record_smiles  quantitative_readout
0  CCOC(=O)c1ccc(N)cc1                0.0863

----------
- test.settings: in ethanol, 321.15 K
readout.label: solubility (mole fraction)

In [3]: df
Out[3]:
         record_smiles  quantitative_readout
0  CCOC(=O)c1ccc(N)cc1                 0.251

----------
- test.settings: in n-butanol, 299.15 K
readout.label: solubility (mole fraction)

>>> df
         record_smiles  quantitative_readout
0  CCOC(=O)c1ccc(N)cc1                0.0821
